TARGET_OF_ASSAY: tau (Homo sapiens)
Sequence (P10636 623-695 limits assumed): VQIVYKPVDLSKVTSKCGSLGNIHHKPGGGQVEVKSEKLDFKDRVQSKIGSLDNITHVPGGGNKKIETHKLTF
ASSAY: MCE Phenols Library screening, tau biosensor cell seeding assay (AvZ)
Format: cell-based
CONDITION_SUMMARY: Z score, replicate 2
RECORDED_ENDPOINT: Z Repl 2
Output: the number by itself.

So, COc1ccc(-c2oc3c(CC=C(C)C)c(O[C@@H]4O[C@H](CO)[C@@H](O)[C@H](O)[C@H]4O)cc(O)c3c(=O)c2O[C@@H]2O[C@@H](C)[C@H](O)[C@@H](O)[C@H]2O[C@@H]2OC[C@@H](O)[C@H](O)[C@H]2O)cc1 [Epimedin B] ? Its Z Repl 2 was 0.482

Per the records, this compound ( COc1cc2c(cc1O)C[C@H]1c3cc(O)c(OC)cc3CC[N@@+]1(C)C2.[Cl-] [Phellodendrine (chloride)] ) has Z Repl 2 equal to -0.68

The reported Z Repl 2 of the compound "COc1cc(O)c2c(c1)oc(=O)c1c3cc(O)c(O)cc3oc21" was -1.136
